TARGET ENTITY: 1-phosphatidylinositol 4,5-bisphosphate phosphodiesterase beta-3 (Homo sapiens) (UniProt Q01970)
Sequence (Q01970 whole entry, looked up): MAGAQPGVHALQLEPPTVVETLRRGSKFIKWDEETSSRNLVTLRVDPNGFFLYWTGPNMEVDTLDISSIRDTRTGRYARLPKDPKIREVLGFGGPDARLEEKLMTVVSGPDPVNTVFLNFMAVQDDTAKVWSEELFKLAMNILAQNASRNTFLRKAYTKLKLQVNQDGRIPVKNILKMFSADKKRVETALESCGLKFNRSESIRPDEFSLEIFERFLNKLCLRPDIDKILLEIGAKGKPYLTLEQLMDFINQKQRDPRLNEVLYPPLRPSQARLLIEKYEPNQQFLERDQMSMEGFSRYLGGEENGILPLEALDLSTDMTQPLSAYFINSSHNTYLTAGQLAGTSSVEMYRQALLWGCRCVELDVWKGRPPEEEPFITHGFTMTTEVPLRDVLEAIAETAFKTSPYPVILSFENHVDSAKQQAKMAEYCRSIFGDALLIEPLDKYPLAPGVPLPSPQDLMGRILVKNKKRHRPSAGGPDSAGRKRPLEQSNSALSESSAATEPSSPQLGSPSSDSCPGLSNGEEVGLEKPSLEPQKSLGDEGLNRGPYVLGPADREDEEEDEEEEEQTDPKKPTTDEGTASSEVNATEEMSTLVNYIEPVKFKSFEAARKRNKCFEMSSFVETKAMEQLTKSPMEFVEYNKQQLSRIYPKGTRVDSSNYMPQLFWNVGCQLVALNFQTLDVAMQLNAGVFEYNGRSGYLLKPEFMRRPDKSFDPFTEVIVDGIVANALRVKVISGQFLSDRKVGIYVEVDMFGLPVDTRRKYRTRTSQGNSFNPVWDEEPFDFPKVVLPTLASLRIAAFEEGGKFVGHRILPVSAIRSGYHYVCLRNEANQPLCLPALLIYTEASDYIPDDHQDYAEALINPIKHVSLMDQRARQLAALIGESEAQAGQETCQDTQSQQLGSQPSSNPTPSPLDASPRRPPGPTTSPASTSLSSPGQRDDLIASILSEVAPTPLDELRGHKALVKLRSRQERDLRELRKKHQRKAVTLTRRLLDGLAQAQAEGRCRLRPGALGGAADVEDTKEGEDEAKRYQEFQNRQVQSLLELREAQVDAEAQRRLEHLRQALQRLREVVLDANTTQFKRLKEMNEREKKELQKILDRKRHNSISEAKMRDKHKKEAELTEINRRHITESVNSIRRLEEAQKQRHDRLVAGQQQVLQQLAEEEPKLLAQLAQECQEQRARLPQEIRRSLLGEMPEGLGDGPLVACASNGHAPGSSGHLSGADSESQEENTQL
EXPERIMENTAL PROTOCOL: phospholipase C beta3 enzyme inhibition – biochemical, fluorescence, primary screen (AID 720704);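 also: 0% = median of compound wells on plate and 100% = full blocker control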
MEASUREMENT CONTEXT: Purified PLC-beta3, fluorogenic substrate, at 12.2 µM, active compounds read high
About 660 (0.18%) of roughly 370,000 compounds were called active. For the sample, actives were picked, then their nearest neighbours and some compounds at random.
REPORTED METRIC: inhibition (%)
Your answer is read as %, so omit the unit and give the number.

Here's what some known entries look like.
[[record]]
compound = "NC(c1csc(NC(=O)Nc2ccccc2Oc2ccccc2)n1)c1ccccc1Cl (centres undefined)"
reported_metric = "inhibition"
experimental_result = -2.19

[[record]]
compound = "O=C(Nc1cccc2ccccc12)c1[nH]c(-c2ccccc2)c2c1C(=O)N(C1CC1)C2=O"
reported_metric = "inhibition"
experimental_result = -1.92


// returns reported inhibition for input CCC1CCCCN1C(=O)CSc1nc2c(c(=O)n(C)c(=O)n2C)n1C (centres undefined)
-1.77

// returns reported inhibition for input CC(C)=CCN1CCN(Cc2cc3ccccc3[nH]2)CC1CCO (centres undefined)
-5.94

// returns reported inhibition for input O=C1NC(=O)C(CCc2ccccc2)(c2ccccc2)N1 (centres undefined)
2.82

// returns reported inhibition for input C=CC[C@@H](CC(=O)N[C@@H](CO)Cc1ccccc1)C(=O)NCCOC(=O)[C@@H](CC=C)CC(=O)OC(C)(C)C
2.47

// returns reported inhibition for input CCOc1ccc2nc(Cl)c(C3CC(c4ccccc4)=NN3C(=O)c3cccs3)cc2c1 (centres undefined)
-0.32

// returns reported inhibition for input COC(=O)CN1C(=O)C(O)=C(C(C)=O)C1c1ccc([N+](=O)[O-])cc1 (centres undefined)
13.8

// returns reported inhibition for input O=c1/c(=C/c2ccc(CNS(=O)(=O)c3ccccc3)o2)sc2n1CCN=2
-17.6

// returns reported inhibition for input CC(=O)C1=C(O)C(=O)N(c2cccnc2)C1c1ccc([N+](=O)[O-])cc1 (centres undefined)
4.27

// returns reported inhibition for input C=CC[C@@H](CC(=O)N[C@@H](CO)Cc1ccccc1)C(=O)N[C@H](COC(=O)[C@H](CC=C)CC(=O)OC(C)(C)C)Cc1ccccc1
2.78

// returns reported inhibition for input CCOc1c(Br)cc(/C=C2\C(=O)N(CCC#N)N=C2C)cc1OC
13.5

// returns reported inhibition for input CCOc1ccccc1C1CC(c2cccc(NS(C)(=O)=O)c2)=NN1C(=O)c1ccccc1 (centres undefined)
13.2

// returns reported inhibition for input O=CN1CCN(C(=O)c2ccc3c(c2)OCO3)CC1
-2.96

// returns reported inhibition for input CCOc1ccc(S(=O)(=O)Nc2ccncc2)c(C)c1C
1.51

// returns reported inhibition for input O=C(O)CCCCOn1ccnc1
1.89

// returns reported inhibition for input C=CC[C@@H](CC(=O)NCCO)C(=O)N[C@H](C)COC(=O)[C@@H](CC=C)CC(=O)OC(C)(C)C
12.3

// returns reported inhibition for input CC[C@]12c3[nH]c4ccc(Cl)cc4c3CCN1C(=O)[C@@H](CC(=O)NCCCOC)C[C@@H]2C(=O)N1CCN(C(=O)C2CC2)CC1
-4.01

// returns reported inhibition for input CCCC1CCC(=NNC(=S)NCCc2ccccc2)CC1 (centres undefined)
-1.2

// returns reported inhibition for input Cc1cc(NS(=O)(=O)c2ccc(NC(=O)CSc3nnc(SCc4ccc(F)cc4)s3)cc2)nc(C)n1
-3.29
